- Protocol Notes: NCI Yeast Anticancer Drug Screen. Data for the mlh1 rad18 strain (AID 175)
- Measurement Conditions: S. cerevisiae mlh1 rad18 strain growth inhibition; at 50.0 µM (retest, dose inferred, filed as 5.0); hits give high values
Compounds without any hit were thinned out: in the full panel of roughly 79,000, 15% have a hit.
Threshold check on growth inhibition: at or above 80% gives yes (1), strictly below gives no (0).

Compound | Qualitative Label
O=[N+]([O-])c1ccc2nnnn2c1 | yes (1)
O=C1c2ccccc2C(=O)C1C(c1ccc(F)cc1)C1C(=O)c2ccccc2C1=O | no (0)
CCCCCCCCCCCC[N+](C)(C)Cc1ccccc1 (tested in a mixture with another compound) | yes (1)
CCCCCCC(CCl)c1sc(-c2csc(CCNC(=O)OC(C)(C)C)n2)nc1C(=O)OC (configuration not stated) | yes (1)
CCCCCC(=O)C(C)(c1nc2n(c1O)/C(=N/C(=O)Nc1ccc(Cl)cc1)N=N2)c1nc2n(c1O)/C(=N/C(=O)Nc1ccc(Cl)cc1)N=N2 | no (0)
COc1ccc2c(C)cc(N/N=C/c3sccc3C)nc2c1 | yes (1)

growth inhibition >= 80% for "Cc1ccc(N(C=O)c2c([N+](=O)[O-])cc([N+](=O)[O-])c3c2=[N+]([O-])CN=3)cc1" ?
yes (1)

Kindly determine if growth inhibition recorded for "[O-]c1c2cc(-[n+]3c(-c4ccccc4)cc(-c4ccccc4)cc3-c3ccccc3)cc1COCCOCCOCCOCCOC2" is above or exactly 80%.
no (0)

Say whether "CC1=Cc2ccc(C)cc2C(=O)C1=O" shows growth inhibition of 80% or more.
yes (1)

###

What growth inhibition was measured for each of the following?
- Protocol Notes: NCI Yeast Anticancer Drug Screen. Data for the rad50 strain (AID 155);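 further: 0% = growth of vehicle-only cultures of the same strain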
- Measurement Conditions: S. cerevisiae rad50 strain growth inhibition; at 33.0 µM; hits give high values
About 79,000 compounds went through this panel and 15% of them were active in at least one assay; those are over-represented in the sample as a whole.
Numbers only, in %.

Compound | growth inhibition [%]
CN(C)N=Nc1ccc(NC=O)cc1 | 97

Batch request: growth inhibition per item, same order as input.
1. Cc1ccc(C(C)C)c(C(=C2C=CC(=[N+](C)C)C=C2)c2c(C(C)C)ccc(C)c2O)c1O
2. O=C1OC(c2ccc(Cl)cc2)Sc2ccccc21 (stereo unspecified)
3. COc1ccc(C(=O)OCCc2ccccc2)cc1
4. Cc1cccc(N2CCN(C(=O)/C(=C/c3ccccc3)NC(=O)c3ccccc3)CC2)c1
5. S=c1[nH]nc(Cc2ccccc2)c(=S)[nH]1

93
95
13
59
89

###

- Protocol Notes: NCI Yeast Anticancer Drug Screen. Data for the cln2 rad14 strain (AID 165);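 further: 0% = growth equal to vehicle treated cultures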
- Measurement Conditions: S. cerevisiae cln2 rad14 strain, at 5.0 µM (retest, dose inferred, filed as 0.5), hits give high values
About 79,000 compounds went through this panel and 15% of them were active in at least one assay; those are over-represented in the sample as a whole.
Reported Property: growth inhibition (%)
Answers are plain numbers, in %.

Compound | Unit Of Measurement | Numeric Result
CCCCCCCCCCCCCCCCCN | % | 16
O=C1C=CC(=Nc2ccc3c(c2)Cc2cc(Cl)ccc2-3)O1 | % | 7
CC1(C)CC(=O)C(C(CC(c2ccccc2)c2cc3c(cc2O)OCO3)C2=C(O)CC(C)(C)CC2=O)=C(O)C1 (stereo unspecified) | % | 21
CNc1ccc2[nH]c3ccccc3c2c1 | % | -14
CC[N+]1(C)CCC(O)(/C=C/c2ccc(Cl)c(Cl)c2)C(C(=O)/C=C/c2ccc(Cl)c(Cl)c2)C1 (stereo unspecified) | % | 46
COc1ccc2c(C)cc(N/N=C/c3sccc3C)nc2c1 | % | 4
COC1=C(N=[N+]=[N-])C(=O)c2ncccc2C1=O | % | 24
[Cl][Pt+2][Cl].[NH-]CC1(C[NH-])CCCCC1 | % | 43
S=c1[nH]nc(Cc2ccccc2)c(=S)[nH]1 | % | 45
O=C(Nn1c(-c2ccccc2)nc2ccccc2c1=O)c1ccc(Cl)cc1 | % | -20

Turning to the following compound.
response.value for "O=C1C=CC(=O)N1c1ccc(Br)cc1Cl" (field: growth inhibition) = 73
